test system: A549; experiment: Cytotoxicity against human A549 cells after 48 hrs by SRB assay; assay type: functional, cell-based; details: A549, 48 h
PROPERTY: IC50

Memo: "CC(C)=CCC/C(C)=C/CC/C(C)=C/CC/C=C(\C)CC/C=C(\C)CCCOC(=O)CCCSSCCCC(=O)O[C@H]1[C@@H](C)CCC[C@H]2O[C@H]2C[C@@H](/C(C)=C/c2csc(C)n2)OC(=O)C[C@H](O)C(C)(C)C(=O)[C@@H]1C" , reported IC50: > 5 µM

---

experiment: Stability of the compound in presence of 100 mM NaCl assessed as compound mean nano particles size at 2 mg/ml by quasi-elastic light scattering method; assay type: physicochemical
PROPERTY: Stability
For clarity, give the value followed by its unit.

{"columns": ["COMPOUND_STRUCTURE_STRING", "Stability"],
 "data": [
  ["CC(C)=CCC/C(C)=C/CC/C(C)=C/CC/C=C(\\C)CC/C=C(\\C)CCCOC(=O)CCCSSCCCC(=O)O[C@H]1[C@@H](C)CCC[C@H]2O[C@H]2C[C@@H](/C(C)=C/c2csc(C)n2)OC(=O)C[C@H](O)C(C)(C)C(=O)[C@@H]1C", "312.9 nm"]
]}

Kindly review the next molecule as well.
Memo: "CC(C)=CCC/C(C)=C/CC/C(C)=C/CC/C=C(\C)CC/C=C(\C)CCCOC(=O)CCCCCCCCC(=O)O[C@H]1[C@@H](C)CCC[C@H]2O[C@H]2C[C@@H](/C(C)=C/c2csc(C)n2)OC(=O)C[C@H](O)C(C)(C)C(=O)[C@@H]1C" , reported Stability: 502.4 nm
